FYI, the data here is from patent US9498540B2.

# TEST_DETAILS: Aggregation of immunoconjugates by analytical size exclusion chromatography
# Format: physicochemical
# CONDITION_NOTES: conjugate with trastuzumab (TBS); Superdex 200 5/150 GL run in PBS
QUANTITY_KIND: Aggregation % (%)
# output: bare number, implied unit %

Some entries whose results are on file:
Quick one: Aggregation % for "C[C@H](O)C(=O)N(C[C@@H]1CNC[C@@H]1F)[C@H](c1nc(-c2cc(F)ccc2F)cn1Cc1ccccc1)C1CCS(=O)(=O)CC1" ? 65.2

Quick one: Aggregation % for "C[C@H](O)C(=O)N(C[C@H]1CNC[C@H]1F)[C@@H](c1nc(-c2cc(F)ccc2F)cn1Cc1ccccc1)C1CCOCC1" ? 25.7

Quick one: Aggregation % for "CC(C)(C)[C@H](c1nc(-c2cc(F)ccc2F)nn1Cc1ccccc1)N(CCCN)C(=O)N1CCC[C@H]1CO" ? 63.6

Quick one: Aggregation % for "C[C@@H](CO)NC(=O)N(C[C@@H]1CNC[C@@H]1F)[C@@H](c1nc(-c2cc(F)ccc2F)cn1Cc1ccccc1)C1CCOCC1" ? 55

Quick one: Aggregation % for "CC(C)(C)[C@H](c1nc(-c2cc(F)ccc2F)nn1Cc1ccccc1)N(CCCN)C(=O)c1cccnc1" ? 49.3

***
Quick one: Aggregation % for "C[C@H](O)C(=O)N(CC[C@@H](N)CF)[C@@H](c1nc(-c2cc(F)ccc2F)nn1Cc1ccccc1)C(C)(C)C" ? 1.4

Quick one: Aggregation % for "O=C(CI)N(C[C@@H]1CNC[C@@H]1F)[C@@H](c1nc(-c2cc(F)ccc2F)cn1Cc1ccccc1)C1CCOCC1" ? 60.8

Quick one: Aggregation % for "CC(C)(C)[C@H](c1nc(-c2cc(F)ccc2F)nn1Cc1ccccc1)N(CCCN)C(=O)CO" ? 40

Quick one: Aggregation % for "COC(C)(C)[C@H](c1nc(-c2cc(F)ccc2F)cn1Cc1cccc(F)c1)N(C[C@@H]1CNC[C@@H]1F)C(=O)[C@H](C)O" ? 2.5

Quick one: Aggregation % for "CC(C)(C)[C@H](c1nc(-c2cc(F)ccc2F)cn1Cc1ccccc1)N(CC[C@H](N)CF)C(=O)N1CCN(S(C)(=O)=O)CC1" ? 2.4

Quick one: Aggregation % for "CC(C)(C)[C@H](c1nc(-c2cc(F)ccc2F)cn1Cc1ccccc1)N(CC[C@H](N)CF)C(=O)NO" ? 84.5

Quick one: Aggregation % for "C[C@H](O)C(=O)N(CC[C@@H](N)CF)[C@@H](c1nc(-c2cc(F)ccc2F)cn1Cc1ccccc1)C(C)(C)C" ? 2.9

Quick one: Aggregation % for "CC(C)(C)[C@H](c1nc(-c2cc(F)ccc2F)cn1Cc1cccc(F)c1)N(C[C@@H]1CNC[C@@H]1F)C(=O)CCS" ? 63.2

---

# TEST_DETAILS: Average drug loading (DAR, drug to antibody ratio) from LC/MS of reduced, deglycosylated conjugates
# CONDITION_NOTES: conjugate with trastuzumab (TBS); average number of payload molecules per antibody
DAR reference
Just the number, please.

Some entries whose results are on file:
Quick one: DAR for CC(C)(C)[C@H](c1nc(-c2cc(F)ccc2F)nn1Cc1ccccc1)N(CC[C@@H](N)CF)C(=O)N1CCSCC1 [Compound 43] ? 6.1

Quick one: DAR for CC(C)(C)[C@H](c1nc(-c2cc(F)ccc2F)cn1Cc1ccccc1)N(CC[C@H](N)CF)C(=O)NO [Compound 22] ? 6

***
Quick one: DAR for CC(C)(C)[C@H](c1nc(-c2cc(F)ccc2F)nn1Cc1ccccc1)N(CC[C@H](N)CF)C(=O)N1CCSCC1 [Compound 10] ? 5

Quick one: DAR for CC(C)(C)[C@H](c1nc(-c2cc(F)ccc2F)cn1Cc1ccccc1)N(CC[C@@H](N)CF)C(=O)c1cccnc1 [Compound 51] ? 5.6

Quick one: DAR for C[C@H](O)C(=O)N(CC[C@H](N)CF)[C@@H](c1nc(-c2cc(F)ccc2F)cn1Cc1ccccc1)C1CCS(=O)(=O)CC1 [Compound 37] ? 5.6

Quick one: DAR for C[C@@H](CO)NC(=O)N(C[C@@H]1CNC[C@@H]1F)[C@@H](c1nc(-c2cc(F)ccc2F)cn1Cc1ccccc1)C1CCOCC1 [Compound 17] ? 5.8

Quick one: DAR for CNC(=O)N(CC[C@H]1COCCN1)[C@@H](c1nc(-c2cc(F)ccc2F)cn1Cc1ccccc1)C(C)(C)C [Compound 4] ? 4.8
